target: Serine/threonine-protein kinase pim-1 (Homo sapiens); settings: at 1 µM
assay-endpoint: residual activity (%)
API: value field is a number in %; no unit string.

Need residual activity of CC(=O)O/N=C1\C(=C2\C(=O)Nc3cc(Br)ccc32)Nc2ccccc21 , thanks.
92

Same again, this time with Cc1ccc(NC2=CC(=O)c3sc(C)nc3C2=O)cc1
94

Same again, this time with O=C1NC(=O)c2cc(Nc3ccc(F)cc3)c(Nc3ccc(F)cc3)cc21
49

Same again, this time with COc1ccc(OC)c2c(=S)c3ccccc3[nH]c12
97

Same again, this time with Ic1cccc(CSc2nnc(-c3ccncc3)o2)c1
104

Same again, this time with O=C(Nc1cccc(Nc2cc(Nc3cccc(C(F)(F)F)c3)ncn2)c1)C1CC1
112

Same again, this time with COc1cc2ncnc(Nc3ccc(O)c(Br)c3)c2cc1OC
66

Same again, this time with N#Cc1cnc2cnc(NCc3cccnc3)cc2c1Nc1ccc(F)c(Cl)c1
27

Same again, this time with O=Nc1c(-c2c(O)[nH]c3ccccc23)[nH]c2ccccc12
76

Same again, this time with CC#CC(=O)Nc1cc2c(Nc3ccc(F)c(Cl)c3)ncnc2cn1
88

* * *

molecular target: PAS domain-containing serine/threonine-protein kinase (Homo sapiens); details: at 10 µM
Provide the reported residual activity of each item.
API: value field is a number in %; no unit string.

Notebook: pull reported residual activity for PAS domain-containing serine/threonine-protein kinase (Homo sapiens), entry Nc1cccc(-c2cc3c(Oc4cccc(O)c4)ncnc3[nH]2)c1
101

Same again, this time with CC(=O)c1ccc(N2CCOCC2)cc1O
88

Same again, this time with O=[N+]([O-])c1ccc(-c2nc(-c3ccc(F)cc3)c(-c3ccncc3)[nH]2)cc1
119

Same again, this time with COc1cc2ncc(-c3ccccc3)nc2cc1OC
93

Same again, this time with COc1ccc(CNc2nc(N(CCO)CCO)nc3c2ncn3C(C)C)cc1
129

Same again, this time with CCC(=O)Nc1ccc2ncnc(Nc3cccc(Br)c3)c2c1
36

Same again, this time with O=C1NC(=O)c2cc(Nc3ccc(F)cc3)c(Nc3ccc(F)cc3)cc21
51

Same again, this time with COc1ccc(OC)c2c(=S)c3ccccc3[nH]c12
102

Same again, this time with COc1cc2ncnc(Nc3ccc(O)c(Br)c3)c2cc1OC
8

Same again, this time with Cc1ccc(S(=O)(=O)/C=C/C#N)cc1
86

Same again, this time with Cc1cncc2cccc(S(=O)(=O)N3CCCN(C(=O)CN)C[C@H]3C)c12
64

Same again, this time with Cc1cc(Nc2nc(-c3ccccc3)nc3ccccc23)n[nH]1
121

Same again, this time with COc1ccc(C(=O)Nc2sc3c(c2C(N)=O)CCCC3)cc1OC
90

Same again, this time with CO[C@H]1[C@@H](OC)C[C@H](C)[C@@H](OC)C2=CC(=O)C=C(NC(=O)/C(C)=C/C=C/[C@H](OC)[C@@H](OC(N)=O)/C(C)=C/[C@@H]1C)C2=O
59

Same again, this time with Nc1nc(Nc2ccc(S(N)(=O)=O)cc2)nn1C(=S)Nc1c(F)cccc1F
89

Same again, this time with COc1cc2ncnc(Nc3ccc(NC(=O)c4ccccc4)cc3)c2cc1OC
67

Same again, this time with O=C1Nc2ccc(Br)cc2/C1=C\c1cc2c([nH]1)CCCC2
98

Same again, this time with O=C(Nc1cccc(Nc2cc(Nc3cccc(C(F)(F)F)c3)ncn2)c1)C1CC1
64

Same again, this time with Oc1ccc(Nc2nc(-c3ccc(Cl)cc3)cs2)cc1
126

Same again, this time with Cn1cc(/C=C2\C(=O)Nc3ccc(S(N)(=O)=O)cc32)c2ccccc21
71
